# Tested on: Klebsiella aerogenes DSM 30053
# Protocol Text: fold change of Histamine concentration vs plate DMSO controls (fold change (ratio)); higher = more amine produced, active = hit call of the paper (significant change in both replicates, either direction);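 for the amine columns active = adjusted P below 0.05 in both replicates with a change the same way and a mean fold change under 0.8 or over 1.25; inactive = the rest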
# Test Context: incubation time: 27 h, anaerobic, 37 °C
Counter-ions that a name gives are not always drawn.
Outcome codes: active, inactive

# Compound, Class Assignment
measured = [
    ("CC(=O)O[C@]1(C(C)=O)CC[C@H]2[C@@H]3C=C(Cl)C4=CC(=O)[C@@H]5C[C@@H]5[C@]4(C)[C@H]3CC[C@@]21C [Cyproterone acetate] (20 µM)", "inactive"),
    ("CC(N/C(=N\\C#N)Nc1ccncc1)C(C)(C)C (stereo unspecified) [Pinacidil monohydrate] (20 µM)", "inactive"),
    ("O=C(CCCl)NCc1ccccc1 [Beclamide] (20 µM)", "inactive"),
    ("CC1(C)S[C@@H]2[C@H](NC(=O)[C@H](N)c3ccc(O)cc3)C(=O)N2[C@H]1C(=O)O [Amoxicillin] (20 µM)", "inactive"),
    ("Clc1ccccc1CN1CCc2sccc2C1 [Ticlopidine hydrochloride] (20 µM)", "inactive"),
    ("CC(C)OC(=O)CCC/C=C\\C[C@@H]1[C@@H](CC[C@@H](O)CCc2ccccc2)[C@H](O)C[C@@H]1O [Latanoprost] (20 µM)", "inactive"),
    ("CC(=O)OC(C)OC(=O)C(C)c1ccc(-c2ccccc2)c(F)c1 (stereo unspecified) [Flurbiprofen axetil] (20 µM)", "inactive"),
    ("Clc1ccc(Nc2nnc(Cc3ccncc3)c3ccccc23)cc1 [Vatalanib] (20 µM)", "inactive"),
    ("COc1ccccc1N1CCN(CCCNc2cc(=O)n(C)c(=O)n2C)CC1 [Urapidil hydrochloride] (20 µM)", "inactive"),
    ("Cc1onc(-c2c(F)cccc2Cl)c1C(=O)N[C@@H]1C(=O)N2[C@@H]1SC(C)(C)[C@@H]2C(=O)O [Flucloxacillin sodium] (20 µM)", "inactive"),
    ("Clc1ccc(Cn2c(CN3CCCC3)nc3ccccc32)cc1 [Clemizole hydrochloride] (20 µM)", "inactive"),
    ("CCN1CCN(c2cc3c(cc2F)c(=O)c(C(=O)O)cn3C2CC2)CC1 [Enrofloxacin] (20 µM)", "active"),
    ("CCN(CC)CCNC(=O)c1cc(Cl)c(N)cc1OC [Metoclopramide monohydrochloride] (20 µM)", "inactive"),
    ("CCC1(c2ccccc2)C(=O)NCNC1=O [Primidone] (20 µM)", "inactive"),
    ("CCCCc1nc(Cl)c(CO)n1Cc1ccc(-c2ccccc2-c2nnn[nH]2)cc1 [Losartan] (20 µM)", "inactive"),
    ("Cc1cc2c(cc1S(N)(=O)=O)S(=O)(=O)CCC2 [Meticrane] (20 µM)", "inactive"),
]

Values from the supplement of paper PMC12494721
